// provenance: patent US8664223B2

test: Solubility/stability at pH 2.3 (chemiluminescent nitrogen detector); assay type: physicochemical; details: pH 2.3, aqueous buffer; read-out: Solubility C.3.b. pH = 2.3
parameter: solubility

CC(=O)NC(/C=C/c1ccccc1)CN1CCN(c2ncc(C(=O)NO)cn2)CC1 (centres unmarked) [Compound 1] has a reported solubility of 2400 µg/mL

NC(/C=C/c1ccccc1)CN1CCN(c2ncc(C(=O)NO)cn2)CC1 (centres unmarked) [Compound 2] has a reported solubility of 3100 µg/mL

###

Counter-ions that a name gives are not always drawn.
parameter: melting point (°C)
Field format: number, assumed °C, no unit text.

O=C(NO)c1cnc(N2CCN(CC(/C=C/c3ccccc3)Oc3ccc(F)cc3)CC2)nc1 (stereo not shown) (as salt: trifluoroacetic acid salt) (hydrate or solvate) has a reported melting point of 115

CC(=O)NC(/C=C/c1ccccc1)CN1CCN(c2ncc(C(=O)NO)cn2)CC1 (stereo not shown) (as salt: trifluoroacetic acid salt) (hydrate or solvate) has a reported melting point of 166

O=C(NO)c1cnc(N2CCN(CC(/C=C/c3ccccc3)N3C(=O)CCC3=O)CC2)nc1 (stereo not shown) (as salt: trifluoroacetic acid salt) (hydrate or solvate) has a reported melting point of 148

NC(/C=C/c1ccccc1)CN1CCN(c2ncc(C(=O)NO)cn2)CC1 (stereo not shown) (as salt: trifluoroacetic acid salt) has a reported melting point of 124
